Ref: PubChem BioAssay AID1159580

Assay explanation: chemical genetic growth profiling, strain panel (AID 1159580);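 further: tested at 20 µM; growth read once vehicle control cultures reached saturation at 30 °C; 1 = growth at the plate median or of vehicle wells; lower values mean less growth of the strain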
Measurement setup: S. cerevisiae deletion strains, growth OD, locus YNR049C, strain mso1, stronger effect = lower value
Hit rate of the full screen: of about 5,500 compounds, about 2,000 (36%) were called active. Not shown: some 18% with an inconclusive outcome. The list shows a part of the results.
Measurement kind: normalized growth
# output: bare number, no unit

Here's what some known entries look like.
[[record]]
compound = "O=[N+]([O-])c1cc(O)c(O)c([N+](=O)[O-])c1"
reading = 1

[[record]]
compound = "CCOC(=O)c1oc2c(OC)c(O)cc(O)c2c(=O)c1-c1cc(OC)c(OC)c(OC)c1"
reading = 0.974

[[record]]
compound = "Nc1ncn([C@@H]2O[C@H](CO)[C@@H](O)[C@H]2O)c(=O)n1"
reading = 0.968

[[record]]
compound = "CC(C)(C)NCC(O)c1ccccc1Cl (stereo not given)"
reading = 0.994


Write down normalized growth measured for item N[C@@H](Cc1ccc(O)c(O)c1)C(=O)O
1

Write down normalized growth measured for item CO[C@H]1/C=C/O[C@@]2(C)Oc3c(C)c(O)c4c(O)c(c(/C=N/N5CCN(C)CC5)c(O)c4c3C2=O)NC(=O)/C(C)=C\C=C\C(C)[C@H](O)[C@@H](C)[C@@H](O)[C@@H](C)[C@@H](OC(C)=O)[C@@H]1C (stereo not given in full)
1.03

Write down normalized growth measured for item CC(C)=CCC/C(C)=C/CC/C(C)=C/CC/C(C)=C/CC/C(C)=C/CC/C(C)=C/CC/C(C)=C/CC/C(C)=C/CC/C(C)=C/CO
1.02

Write down normalized growth measured for item O=[N+]([O-])c1ccc(O)c([N+](=O)[O-])c1
0.779

* * *

Assay explanation: chemical genetic growth profiling, strain panel (AID 1159580);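 further: tested at 20 µM; growth read once vehicle control cultures reached saturation at 30 °C; 1 = growth at the plate median or of vehicle wells; lower values mean less growth of the strain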
Measurement setup: S. cerevisiae deletion strains, growth OD, locus YOR144C, strain elg1
About 2,000 (36%) of roughly 5,500 compounds were called active. About 18% were inconclusive and are not listed. Cut-off read from the data, not from the text of the source: active = normalized growth mostly below about 0.91 (no sharp cut-off); inconclusive = no clear call, values can overlap the other calls; inactive = mostly above about 0.92. The list shows a part of the results.
Mark one answer only. Choices: active, inactive

The examples below pair each entry with its known result.
[[record]]
compound = "CCCC(C)C1(CC)C(=O)NC(=O)NC1=O (stereo not drawn)"
class_label = "inactive"

[[record]]
compound = "CC(C)NCC(O)c1ccc(O)c(O)c1 (stereo not drawn)"
class_label = "inactive"

[[record]]
compound = "NCC(CC(=O)O)c1ccc(Cl)s1 (stereo not drawn)"
class_label = "inactive"

[[record]]
compound = "CS(=O)(=O)CCCCN=C=S"
class_label = "active"


Give the logged outcome of this assay for the following compound: CCCCC1(COC(=O)CCC(=O)O)C(=O)N(c2ccccc2)N(c2ccccc2)C1=O
inactive

Give the logged outcome of this assay for the following compound: CN1C(CC(=O)c2ccccc2)CCCC1CC(O)c1ccccc1 (stereo not drawn)
inactive

Give the logged outcome of this assay for the following compound: Cc1occc(=O)c1/C=C/O
inactive

Give the logged outcome of this assay for the following compound: Nc1nc2c(ncn2C2C[C@H](O)[C@@H](CO)O2)c(=O)[nH]1 (stereo partly drawn)
active

Give the logged outcome of this assay for the following compound: Nc1ncnc2c1ncn2C1C[C@H](O)[C@@H](CO)O1 (stereo partly drawn)
inactive

Give the logged outcome of this assay for the following compound: NC[C@H](O)c1ccc(O)c(O)c1
inactive

Give the logged outcome of this assay for the following compound: C=C(CC)C(=O)c1ccc(OCC(=O)O)c(Cl)c1Cl
inactive

Give the logged outcome of this assay for the following compound: Cc1occc(=O)c1O
inactive

Give the logged outcome of this assay for the following compound: CCCCC1=NC2(CCCC2)C(=O)N1Cc1ccc(-c2ccccc2-c2nn[nH]n2)cc1
inactive
